- experimentalTarget: T1, human TREM2 (human) (UniProt Q9NZC2)
- T1 sequence (looked up): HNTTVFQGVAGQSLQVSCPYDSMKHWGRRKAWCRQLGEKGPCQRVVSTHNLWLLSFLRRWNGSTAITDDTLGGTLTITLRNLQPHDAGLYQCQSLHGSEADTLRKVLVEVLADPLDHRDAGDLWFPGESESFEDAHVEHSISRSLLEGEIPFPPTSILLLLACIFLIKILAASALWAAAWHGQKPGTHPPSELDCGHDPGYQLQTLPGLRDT
- testDescription: 2nd screen, 10 nM Ab
measuredQuantity: Binding Signal (fold over 6E7 parental antibody) (fold)
Reply numerically in fold, unit not repeated.

QUERY: For the binder 6E7 variant V51 (antibody, V domains shown) VH: EVQLVQSGAEVKKPGESLKISCKGSGYSFTSYWIAWVRQMPGKGLEWMGIIYPGDSDVRYSPSFQGQVTISADKSISTAYLQWSSLKASDTAMYFCARGRTFYYDSSDYFDNWGQGTLVTVSS VL: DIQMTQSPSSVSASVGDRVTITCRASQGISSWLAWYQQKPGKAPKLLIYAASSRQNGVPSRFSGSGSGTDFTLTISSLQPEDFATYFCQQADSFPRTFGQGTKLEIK , what Binding Signal (fold over 6E7 parental antibody) is on record?
RESULT: 3.18

QUERY: Using the record for 6E7 variant V50 (antibody, V domains shown) VH: EVQLVQSGAEVKKPGESLKISCKGSGYSFGSYWIAWVRQMPGKGLEWMGVIYPGDSDTRYSPSFQGQVTISADKSISTAYLQWSSLKASDTAMYFCARQRTFYYDSSDYLDYWGQGTLVTVSS VL: DIQMTQSPSSVSASVGDRVTITCRASQGISSWLAWYQQKPGKAPKLLIYAASSRQNGVPSRFSGSGSGTDFTLTISSLQPEDFATYFCQQADSLPRTFGQGTKLEIK , report its Binding Signal (fold over 6E7 parental antibody).
RESULT: 4.16

QUERY: So what's the measured Binding Signal (fold over 6E7 parental antibody) for this one? 6E7 variant V74 (antibody, V domains shown) VH: EVQLVQSGAEVKKPGESLKISCKGSGYSFASYWIAWVRQMPGKGLEWMGIIYPGDSDVRYSPSFQGQVTISADKSISTAYLQWSSLKASDTAMYFCARGRTFYYDSSDYFDYWGQGTLVTVSS VL: DIQMTQSPSSVSASVGDRVTITCRASQGISSWLAWYQQKPGKAPKLLIYAASSLQLGVPSRFSGSGSGTDFTLTISSLQPEDFATYFCQQADSFPRTFGQGTKLEIK
RESULT: 4.01

QUERY: Return reported Binding Signal (fold over 6E7 parental antibody); argument: 6E7 variant V89 (antibody, V domains shown) VH: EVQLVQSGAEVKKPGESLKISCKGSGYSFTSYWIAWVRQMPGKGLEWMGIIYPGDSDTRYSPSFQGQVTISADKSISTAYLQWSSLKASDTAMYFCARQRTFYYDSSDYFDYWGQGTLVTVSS VL: DIQMTQSPSSVSASVGDRVTITCRASQGISSWLAWYQQKPGKAPKLLIYAASSLQNGVPSRFSGSGSGTDFTLTISSLQPEDFATYFCQQADSHPRTFGQGTKLEIK
RESULT: 1.46

QUERY: Entry 6E7 variant V85 (antibody, V domains shown) VH: EVQLVQSGAEVKKPGESLKISCKGSGYSFRSYWIAWVRQMPGKGLEWMGTIYPGDSDTRYSPSFQGQVTISADKSISTAYLQWSSLKASDTAMYFCARSRTFYYDSSDYFDYWGQGTLVTVSS VL: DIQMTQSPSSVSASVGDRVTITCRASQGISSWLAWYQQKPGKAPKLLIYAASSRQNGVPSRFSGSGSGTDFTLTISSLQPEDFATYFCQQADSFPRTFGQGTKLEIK : reported Binding Signal (fold over 6E7 parental antibody) = ?
RESULT: 5.37
